target: PI3K-δ (PI3K(p1108/p857) (h)) (Homo sapiens); assay: Evaluation of inhibitory activity against PI3K-δ (HTRF kinase assay); type: biochemical; conditions: compound concentration 0.1 μM; read-out: EXP_VALUE(% Inhibition) PI3K-δ 0.1 μM
Metric: inhibition at 0.1 µM (%)
Your answer should be a plain number; it is taken to be in %.

Give its inhibition at 0.1 µM value. Item: C[C@H](Nc1ncnc2[nH]ccc(=O)c12)c1c(Cl)c2cccc(N3CCC(c4ccccc4)CC3)c2c(=O)n1-c1ccccc1 [Example 336] 19

Give its inhibition at 0.1 µM value. Item: C[C@H](Nc1ncnc2[nH]ccc(=O)c12)c1c(Cl)c2cccc(Sc3ccncc3)c2c(=O)n1-c1ccccc1 [Example 370] 96

Give its inhibition at 0.1 µM value. Item: C[C@H](Nc1ncnc2[nH]ccc(=O)c12)c1c(Cl)c2cccc(-c3ccc(F)cc3)c2c(=O)n1-c1ccccc1 [Example 63] 96

The record that follows has no inhibition at 0.1 µM shown yet.
Give its inhibition at 0.1 µM value. Item: Cc1cc(F)ccc1-c1cccc2c(Cl)c([C@H](C)Nc3ncnc4[nH]ccc(=O)c34)n(-c3ccccc3)c(=O)c12 [Example 131] 91

* * *

target: PI3K-δ (PI3K(p1108/p857) (h)) (Homo sapiens, UniProt O00329); test: Evaluation of inhibitory activity against PI3K-δ (HTRF kinase assay); type: biochemical; conditions: compound concentration 0.01 μM; read-out: EXP_VALUE(% Inhibition) PI3K-δ 0.01 μM
Sequence (O00329 whole entry): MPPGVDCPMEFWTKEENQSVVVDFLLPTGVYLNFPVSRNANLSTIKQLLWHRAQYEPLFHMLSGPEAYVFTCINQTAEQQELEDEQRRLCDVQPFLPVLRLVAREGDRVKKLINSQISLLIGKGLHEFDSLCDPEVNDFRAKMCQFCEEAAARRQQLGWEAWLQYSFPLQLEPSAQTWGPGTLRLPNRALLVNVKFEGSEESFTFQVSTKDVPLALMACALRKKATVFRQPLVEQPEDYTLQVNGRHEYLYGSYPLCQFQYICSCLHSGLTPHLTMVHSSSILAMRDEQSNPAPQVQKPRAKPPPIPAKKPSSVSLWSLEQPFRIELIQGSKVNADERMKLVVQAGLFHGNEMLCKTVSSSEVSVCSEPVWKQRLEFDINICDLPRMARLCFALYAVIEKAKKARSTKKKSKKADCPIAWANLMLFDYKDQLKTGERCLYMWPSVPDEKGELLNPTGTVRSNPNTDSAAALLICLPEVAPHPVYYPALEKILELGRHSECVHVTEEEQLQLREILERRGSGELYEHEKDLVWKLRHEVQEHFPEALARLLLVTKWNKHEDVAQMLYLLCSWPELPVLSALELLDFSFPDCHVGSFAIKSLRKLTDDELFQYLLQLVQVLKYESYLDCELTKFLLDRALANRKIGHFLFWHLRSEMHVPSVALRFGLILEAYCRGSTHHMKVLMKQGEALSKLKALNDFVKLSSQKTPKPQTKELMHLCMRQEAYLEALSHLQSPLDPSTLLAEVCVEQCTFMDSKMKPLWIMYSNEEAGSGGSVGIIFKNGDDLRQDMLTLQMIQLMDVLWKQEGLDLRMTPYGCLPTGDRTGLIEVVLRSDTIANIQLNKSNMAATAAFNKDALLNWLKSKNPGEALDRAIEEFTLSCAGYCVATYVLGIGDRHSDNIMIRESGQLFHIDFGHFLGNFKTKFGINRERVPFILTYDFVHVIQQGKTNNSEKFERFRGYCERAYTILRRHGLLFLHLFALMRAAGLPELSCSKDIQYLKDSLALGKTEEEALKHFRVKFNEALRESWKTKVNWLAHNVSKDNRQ
Sequence (P27986 whole entry partner): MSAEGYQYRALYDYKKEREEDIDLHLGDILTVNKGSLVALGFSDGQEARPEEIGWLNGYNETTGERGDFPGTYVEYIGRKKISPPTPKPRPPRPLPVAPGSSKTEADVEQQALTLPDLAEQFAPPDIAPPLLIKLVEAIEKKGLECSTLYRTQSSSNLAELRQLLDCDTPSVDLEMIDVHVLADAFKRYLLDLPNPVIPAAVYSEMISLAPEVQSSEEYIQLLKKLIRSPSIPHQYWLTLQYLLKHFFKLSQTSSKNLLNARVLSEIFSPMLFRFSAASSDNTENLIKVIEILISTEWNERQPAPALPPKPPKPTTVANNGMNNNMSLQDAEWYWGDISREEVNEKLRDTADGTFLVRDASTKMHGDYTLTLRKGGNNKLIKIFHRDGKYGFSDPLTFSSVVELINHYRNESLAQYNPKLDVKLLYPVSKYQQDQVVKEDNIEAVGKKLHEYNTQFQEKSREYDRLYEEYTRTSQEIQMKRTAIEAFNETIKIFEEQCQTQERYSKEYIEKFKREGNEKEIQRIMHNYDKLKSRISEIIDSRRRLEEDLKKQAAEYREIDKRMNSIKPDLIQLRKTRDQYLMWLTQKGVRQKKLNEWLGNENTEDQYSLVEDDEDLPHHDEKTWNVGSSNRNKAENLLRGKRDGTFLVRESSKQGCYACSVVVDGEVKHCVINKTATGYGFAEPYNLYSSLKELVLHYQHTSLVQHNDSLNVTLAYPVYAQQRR
Could you label it true (1) if measured inhibition at 0.01 µM is 70% or higher, and false (0) otherwise?

Please indicate if the recorded inhibition at 0.01 µM for C[C@H](Nc1ncnc2[nH]ccc(=O)c12)c1c(Cl)c2cccc(-c3ccc(C(C)(C)C)nc3)c2c(=O)n1-c1ccccc1 meets or exceeds 70%. true (1)

Please indicate if the recorded inhibition at 0.01 µM for C[C@H](Nc1ncnc2[nH]ccc(=O)c12)c1c(Cl)c2cccc(N(C)Cc3ccc4ccccc4c3)c2c(=O)n1-c1ccccc1 meets or exceeds 70%. false (0)

Please indicate if the recorded inhibition at 0.01 µM for C[C@H](Nc1ncnc2[nH]ccc(=O)c12)c1c(Cl)c2cccc(C(=O)NCCN3CCOCC3)c2c(=O)n1-c1ccccc1 meets or exceeds 70%. true (1)

Further cases:
Please indicate if the recorded inhibition at 0.01 µM for Cc1c(-c2cccc3c(Cl)c([C@H](C)Nc4ncnc5[nH]ccc(=O)c45)n(-c4ccccc4)c(=O)c23)cnn1C meets or exceeds 70%. true (1)

Please indicate if the recorded inhibition at 0.01 µM for C[C@H](Nc1ncnc2[nH]ccc(=O)c12)c1c(Cl)c2cccc(-c3ccc(Cl)c(Cl)c3)c2c(=O)n1-c1ccccc1 meets or exceeds 70%. false (0)

* * *

inhibition at 0.1 µM for assorted molecules
target: PI3K-δ (PI3K(p1108/p857) (h)) (Homo sapiens); assay: Evaluation of inhibitory activity against PI3K-δ (HTRF kinase assay); assay type: biochemical; conditions: compound at 0.1 μM; read-out: EXP_VALUE(% Inhibition) PI3K-δ 0.1 μM
Your answer should be a plain number; it is taken to be in %.

// below: answered molecules
# query: inhibition at 0.1 µM | item C[C@H](Nc1ncnc2[nH]ccc(=O)c12)c1c(Cl)c2cccc(Sc3ccc(F)cc3)c2c(=O)n1-c1ccccc1 | system: PI3K-δ (PI3K(p1108/p857) (h)) (Homo sapiens) 7

# query: inhibition at 0.1 µM | item C[C@H](Nc1ncnc2[nH]ccc(=O)c12)c1c(Cl)c2cccc(-c3cccs3)c2c(=O)n1-c1ccccc1 | system: PI3K-δ (PI3K(p1108/p857) (h)) (Homo sapiens) 80

# query: inhibition at 0.1 µM | item CC(C)[S@](=N)(=O)c1cccc2c(Cl)c([C@H](C)Nc3ncnc4[nH]ccc(=O)c34)n(-c3ccccc3)c(=O)c12 | system: PI3K-δ (PI3K(p1108/p857) (h)) (Homo sapiens) 4

The record that follows has no inhibition at 0.1 µM shown yet.
# query: inhibition at 0.1 µM | item CCC[S@+]([O-])c1cccc2c(Cl)c([C@H](C)Nc3ncnc4[nH]ccc(=O)c34)n(-c3ccccc3)c(=O)c12 | system: PI3K-δ (PI3K(p1108/p857) (h)) (Homo sapiens) 29

Data credit: patent US20230072683A1
